study.target: His-LAMA4 as used in Example 6 (species not stated) (Homo sapiens (Human)) (UniProt Q16363)
assay.method.text: ForteBio BLI, LAMA-His on anti-His sensor, antibody 8.33 nM

binder | koff / s⁻¹
humanized 19C12 antibody H3L6 (antibody, V domains shown) VH: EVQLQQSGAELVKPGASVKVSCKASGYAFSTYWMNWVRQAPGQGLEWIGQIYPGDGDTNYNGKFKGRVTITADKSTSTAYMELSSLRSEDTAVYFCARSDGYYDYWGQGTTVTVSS VL: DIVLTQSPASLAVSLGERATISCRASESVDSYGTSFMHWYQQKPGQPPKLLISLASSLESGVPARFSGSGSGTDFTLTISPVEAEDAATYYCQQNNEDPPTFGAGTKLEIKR | 0.000286
chimeric 19C12 antibody (antibody, V domains shown) VH: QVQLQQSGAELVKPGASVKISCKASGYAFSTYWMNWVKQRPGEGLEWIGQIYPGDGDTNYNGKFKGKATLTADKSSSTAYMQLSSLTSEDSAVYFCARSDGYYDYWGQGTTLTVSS VL: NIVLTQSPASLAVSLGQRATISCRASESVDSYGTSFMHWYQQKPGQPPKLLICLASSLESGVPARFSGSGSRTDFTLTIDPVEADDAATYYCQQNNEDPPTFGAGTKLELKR | 0.000251
humanized 19C12 antibody H2L4 (antibody, V domains shown) VH: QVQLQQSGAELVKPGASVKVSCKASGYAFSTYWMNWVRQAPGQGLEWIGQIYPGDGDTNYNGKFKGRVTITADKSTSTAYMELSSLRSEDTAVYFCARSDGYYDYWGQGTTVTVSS VL: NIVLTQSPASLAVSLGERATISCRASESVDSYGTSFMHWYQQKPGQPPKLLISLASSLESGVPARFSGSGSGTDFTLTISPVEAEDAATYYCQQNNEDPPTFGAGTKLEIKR | 0.000268
humanized 19C12 antibody H2L3 (antibody, V domains shown) VH: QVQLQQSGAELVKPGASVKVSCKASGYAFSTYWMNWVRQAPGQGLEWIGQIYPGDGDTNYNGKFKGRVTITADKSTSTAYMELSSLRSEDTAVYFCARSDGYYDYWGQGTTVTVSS VL: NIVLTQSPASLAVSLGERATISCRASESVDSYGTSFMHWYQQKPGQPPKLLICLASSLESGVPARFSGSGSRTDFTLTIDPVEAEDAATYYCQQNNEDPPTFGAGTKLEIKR | 0.000256
